# system: T1, human PD-L1 (hPD-L1) expressed on transfected 300.19 cells (human, UniProt Q9NZQ7 19-290)
# T1 construct: whole, on cells; also called B7H1
# T1 sequence (Q9NZQ7 19-290): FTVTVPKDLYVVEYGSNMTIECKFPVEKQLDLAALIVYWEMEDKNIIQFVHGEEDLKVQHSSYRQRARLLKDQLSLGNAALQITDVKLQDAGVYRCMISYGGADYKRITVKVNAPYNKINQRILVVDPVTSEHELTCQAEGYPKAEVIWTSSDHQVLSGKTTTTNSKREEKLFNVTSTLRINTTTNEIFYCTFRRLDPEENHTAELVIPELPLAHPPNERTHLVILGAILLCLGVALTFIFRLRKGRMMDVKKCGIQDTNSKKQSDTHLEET
# assay details: FACS, hPD-L1 300.19 cells, assay 1, Ab 0.1 ug/ml
Provide the reported Cells PE-A Mean of each item.
# do not omit the unit; it follows the number

# example entries with known answers
Endpoint output: Cells PE-A Mean of Ab-52 (antibody, V domains shown, also called huPD-L1 Ab # 52) VH: QVQLQESGGGVVQPGRSLRLSCSASGFTFSRHGMHWVRQAPGKGLEWVAVISHDGSVKYYADSMKGRFSISRDNSNNTLYLQMDSLRADDTAVYYCARGLSYQVSGWFDPWGQGTLVTVSS VL: NFMLTQPHSVSESPGKTVTISCTRSSGSIASNYVQWYQQRPGSAPTTVIYEDNQRPSGVPDRFSGSIDSSSNSASLTISGLKTEDEADYYCQSYDSTTPSVFGGGTKLTVL . Value? 5610 MFI

Try the binder Ab-50 (antibody, V domains shown, also called huPD-L1 Ab # 50) VH: QVQLVQSGGEVKKPGASVKVSCKASGYTLSSHGITWVRQAPGQGLEWMGWISAHNGHASNAQKVEDRVTMTTDTSTNTAYMELRSLTADDTAVYYCARVHAALYYGMDVWGQGTLVTVSS VL: QSVLTQPPSVSVAPGQTARITCGGNNIGSKGVHWYQQKPGQAPVLVVYDDSDRPSGIPERFSGSNSGNTATLTISRVEAGDEADYYCQVWDSSSDHWVFGGGTKLTVL 15100 MFI

Try the binder Ab-55 (antibody, V domains shown, also called huPD-L1 Ab # 55) VH: QVQLVQSGAEVKKPGASVKVSCKASGYTFTSYGISWVRQAPGQGLEWMGWTSPHNGLTAFAQILEGRVTMTTDTSTNTAYMELRNLTFDDTAVYFCAKVHPVFSYALDVWGQGTLVTVSS VL: NFMLTQPHSVSESPGKTVTISCTRSSGSIASNYVQWYQQRPGSSPTTVIYEDNQRPSGVPDRFSGSIDTSSNSASLTISGLKTKDEADYYCQSYDGITVIFGGGTKLTVL 2300 MFI

Further cases:
Endpoint output: Cells PE-A Mean of Ab-30 (antibody, V domains shown, also called huPD-L1 Ab # 30) VH: QVQLVQSGGSVVRPGESLRLSCVASGFIFDNYDMSWVRQVPGKGLEWVSRVNWNGGSTTYADAVKGRFTISRDNTKNSLYLQMNNLRAEDTAVYYCVREFVGAYDLWGQGTTVTVSS VL: QSALTQPASVSGSPGQSITISCTGTSSDVGGYNYVSWYQQHPGKAPKLMIYDVSNRPSGVSNRFSGSKSGNTASLTISGLQAEDEADYYCSSYTSSTLPFGGGTKLTVL . Value? 17500 MFI

Values were extracted from patent US20200385482A1.
